system: A498 renal; experiment: NCI-60 one-dose screen, 48 h (100 = growth as untreated, 0 = no growth, -100 = all killed); conditions: 10 µM unless noted
This is part of a sample that, as a whole, favours compounds with a hit. Of some 83,000 tested, about 20% had one in any assay. The source made the active and inactive calls. The calls were made as follows: active = growth percent below 10; inactive = the rest.
Provide the reported growth of each item.

Input line: So what's the measured growth for this one? `c1cc[c]([Bi]([c]2ccccc2)[c]2ccccc2)cc1`
Output line: 89.3% (inactive)

Input line: Given the entry `COc1ccc(-c2nnc(SCC(=O)Nc3ccc(C(=O)/C=C/c4cc(OC)c(OC)c(OC)c4)cc3)n2-c2ccccc2)cc1OC` , report its measured growth.
Output line: -69.7% [100 µM] (active)

Input line: Param item = `COc1cc(-c2nn(-c3ccc(NC(=O)Nc4ccc(Cl)c(Cl)c4)cc3)cc2-c2ccncc2)ccc1Cl` ; retrieve measured growth.
Output line: 38.7% (inactive)

Input line: What value of measured growth is listed for CC1CCCCC[N+]12CCCC2 (stereo not given) ?
Output line: 109% (inactive)

Input line: Quick one: growth of `O=C(Nc1ccc(Cl)cn1)C1(c2ccccc2)CCCCC1` ?
Output line: 141% (inactive)

Input line: Which growth value belongs to `CCOC(=O)c1c2c(cn1Cc1ccccc1)-c1oncc1CC2` ?
Output line: 50.5% (inactive)

Input line: Requested read-out: growth. Entry: Nc1nc2c(c3cnccc13)C(c1cccc(Cl)c1)Cc1cnccc1-2 (stereo not given)
Output line: -5.65% (active)

Input line: Name the reported growth value associated with the compound COc1ccc(C2CC(=O)c3c(O)cc(OC4OC(COC5OC(C)C(O)C(O)C5O)C(O)C(O)C4O)cc3O2)cc1O (stereo not given)
Output line: 132% (inactive)

Input line: // lookup growth for `CC(C)CCCCCOC(=O)c1ccccc1SSc1ccccc1C(=O)OCCCCCC(C)C`
Output line: 100% (inactive)

Input line: Look up growth for this compound: `CC#Cc1nc(Nc2cc(C)[nH]n2)c2ccccc2n1`
Output line: -94% [100 µM] (active)

Input line: Could you tell me which growth is on file for `O=C(NCCCl)Nc1nccnc1OCc1ccc(F)cc1` ?
Output line: 105% (inactive)

Input line: Form field: reported growth of COC1NC(Cl)=C(C#N)C(C#N)(C#N)C1(C)C (stereo not given)
Output line: 110% (inactive)

Input line: Given `COc1ccc2sc(-n3nc4nc5n(c(=O)c4c3N)-c3ccccc3Sc3ccccc3-5)nc2c1` , state its recorded growth.
Output line: 117% (inactive)

Input line: Could you tell me which growth is on file for Cc1ccc2c(O)c(O)cc(NC(C)CCCN)c2n1 (stereo not given) ?
Output line: 81.3% (inactive)

Input line: Which growth reading was recorded for the compound `C/C(CCC(=O)O)=N/Nc1ccc([N+](=O)[O-])cc1` ?
Output line: 75.8% (inactive)

Input line: Given the entry O=P(OCCCl)(OCCCl)C(O)c1ccccc1Cl (stereo not given) , report its measured growth.
Output line: 121% (inactive)

Input line: Would you kindly share the measured growth for C=C[C@]1(C)C=C2C(=O)[C@@]3(O)OC[C@@]4(CCCC(C)(C)C43O)C2(O)C(O)C1 (stereo not given in full) ?
Output line: 99.4% (inactive)

Input line: Quick check: growth of `COc1ccc(/C=C2\SC(=O)N(Cc3cc(=O)oc4ccc(OC)cc34)C2=O)cc1` ?
Output line: 93.5% (inactive)

Input line: Look at this compound and give its reported growth. CCCCCCCCCCCC(=O)OC(C)C(=O)Nc1ccccc1 (stereo not given)
Output line: 103% (inactive)

Input line: Sample `CCCCCCCCCC[N+](C)(C)C` — what was its growth?
Output line: 32.9% (inactive)

Input line: For `Cc1ncc(C(=O)Nc2ccc(CN3CCN(C)CC3)c(C(F)(F)F)c2)cc1C#Cc1c(N)ncc2ccccc12` , what is its reported growth?
Output line: -98% (active)

Input line: Quick one: growth of `Nc1cc(N)c2nc(NCCc3ccc(Cl)c(Cl)c3)cnc2c1` ?
Output line: 88.2% (inactive)

Input line: Which growth value belongs to `CC(C)OC(=O)c1ccc2n1CCCc1cnc(Nc3ccccc3)nc1-2` ?
Output line: 63.5% (inactive)

Input line: # lookup: growth of O=C(O)CC1Cc2ccccc2C1C(=O)O (stereo not given)
Output line: 90.3% (inactive)

Input line: // growth lookup, key: CCCCCCCCCCCCCCCCC(=O)O.CCCCCCCCCCCCCCCCCC(=O)O.CCCCCCCCCCCCCCCCCC(=O)O.CCCCCCCCCCCCCCCCCC(=O)O.CCCCCCCCCCCCCCCCCC(=O)O.CO[CH-]OC12COC1CC(O)C1(C)C(O)C(OC(C)O)C3=C(C)C(OC(=O)C(O)C([NH-])c4ccccc4)CC(O)(C(OC(=O)c4ccccc4)C21)C3(C)C.[Cu+].[Zn].[Zn].[Zn].[Zn].[Zn] (stereo not given)
Output line: 45.6% (inactive)

Input line: I am curious: what growth value has been reported for `CC1(C)Oc2cc3oc(=O)ccc3cc2C[C@@H]1OCCOS(=O)(=O)c1ccc(C#N)cc1` ?
Output line: 79.6% (inactive)

Input line: What value of growth has been reported for the following compound? `O=C1/C(=N\c2cc(=O)[nH]n2S(=O)(=O)c2ccccc2)Nc2ccccc21`
Output line: 98.2% (inactive)

Input line: Can you share its growth? I mean this compound: `COC(=O)CC(=O)C(=O)OC`
Output line: 113% (inactive)

Input line: So what does the record say about growth for `C=CN(C)S(C)(=O)=O` ?
Output line: 105% (inactive)

Input line: Look up growth: `O=C(Nc1ccc(-n2cc(-c3ccncc3)c(-c3ccc(Cl)c(O)c3)n2)cc1)c1ccc(Cl)c(C(F)(F)F)c1`
Output line: 71.8% (inactive)

Input line: Fill blank: measured growth of the compound CC(O)CN(CCO)CCN(CCO)CC(C)O (stereo not given) is ____.
Output line: 112% (inactive)

Input line: Can you look up the measured growth of `Cc1ccccc1-n1c(C)nc2cc(NC(=O)c3ccc(Cl)cc3)ccc2c1=O` for me?
Output line: 60.6% (inactive)

Input line: Item under review: `O=C(/C=C/c1ccc(Cl)cc1)c1ccc(Cl)cc1` . Reported growth?
Output line: 82.8% (inactive)

Input line: Reported growth, compound `O=C1NCCN1/N=C/c1c(Cl)nc2n1CCS2` : ____
Output line: 156% (inactive)

Input line: Fill in the blank: the reported growth of `CCCCCCCCc1ccc(CCC(N)(CO)CO)cc1` is ____.
Output line: 90.1% (inactive)
